Listing of recorded GI50 by entry.
- Test system: HT-29
- EXPERIMENT_SUMMARY: NCI tumour cell line growth inhibition, 48 h
Calls of active or inactive are those of the source. Rule as the data show it: active = GI50 up to about 1.1 µM and inactive = higher.
PROPERTY_MEASURED: GI50

molecule="CCOc1cc(NC(C)=O)ccc1C(=O)NN1C(=O)C(Cl)C1c1ccco1 (stereo unspecified)" property_measured=GI50 measured="19.1 µM (inactive)"
molecule=CCOc1cc[n+]([C-](C#N)C#N)cc1 property_measured=GI50 measured="> 100 µM (inactive)"
molecule=O=C1C(Cl)=C(N2CCC[C@H]2CO)C(=O)c2c(O)ccc(O)c21 property_measured=GI50 measured="4.18 µM (inactive)"
molecule=CC(C)CC(=O)NS(=O)(=O)c1ccccc1 property_measured=GI50 measured="> 100 µM (inactive)"
molecule=CCO/C=N/C1=C(C#N)SC2=N/C(=C\c3ccccc3)C(=O)N21 property_measured=GI50 measured="> 100 µM (inactive)"
molecule="COc1ccc(C2SCC(=O)N2c2ccc(-n3c(-c4ccccc4)nc4ccccc4c3=O)cc2)cc1 (stereo unspecified)" property_measured=GI50 measured="> 100 µM (inactive)"
